Target: Voltage-gated potassium channel subunit beta-2 (Rattus norvegicus)
Assay: enhancers of rat Kvbeta2 NADPH turnover – biochemical, NADPH fluorescence, primary screen (AID 623);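 further: fluorescence intensity change per second fitted from 20 to 320 s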
Conditions: Recombinant KvBeta, NADPH fluorescence decrease slope, 10 min; at 10 µM; active compounds read low
quantity name: NADPH fluorescence slope

molecule	tgt	result
COC(=O)CN1C(=O)CC(C)(C)S(=O)c2ccccc21 (stereo unspecified)	Voltage-gated potassium channel subunit beta-2 (Rattus norvegicus)	-5.2e-05
CC(C)Cn1c(N)c(C(=O)NCc2cccs2)c2nc3ccccc3nc21	Voltage-gated potassium channel subunit beta-2 (Rattus norvegicus)	7.5e-06
Nn1c(SCC(=O)Nc2ccc(F)cc2)nnc1-c1cccnc1	Voltage-gated potassium channel subunit beta-2 (Rattus norvegicus)	-0.000146
COc1ccc(S(=O)(=O)N2CCOCC2)cc1C(=O)Nc1cc(C)on1	Voltage-gated potassium channel subunit beta-2 (Rattus norvegicus)	-3.9e-05
CCCCn1c(NCc2ccccc2O)nc2ccccc21	Voltage-gated potassium channel subunit beta-2 (Rattus norvegicus)	-5.9e-06
O=S(=O)(NCc1cn2ccsc2n1)c1ccc2c(c1)OCCO2	Voltage-gated potassium channel subunit beta-2 (Rattus norvegicus)	-3.9e-05
